These measurements were taken from patent US20120295907A1.

# Tested on: Spodoptera littoralis
# PROTOCOL_SUMMARY: Spodoptera littoralis (Egyptian Cotton Leafworm) cotton leaf disc spray test
# Type: in vivo
# CONDITION_PARAMETERS: foliar, 72 h, 200 ppm spray on cotton leaf discs, L1 larvae, mortality, feeding behavior, growth regulation 3 DAT
Quick reference for pest or weed control at 200 ppm among some molecules
PROPERTY_NAME: pest or weed control at 200 ppm

[[record]]
molecule = "CCc1cc(C(F)(C(F)(F)F)C(F)(F)C(F)(F)F)cc(C)c1NC(=O)c1cccc(NC(=O)c2ccc([N+](=O)[O-])cc2C)c1OC (stereo not drawn)"
property_name = "pest or weed control at 200 ppm"
result = "≥ 80%"

[[record]]
molecule = "COc1ccccc1C(=O)Nc1cccc(C(=O)Nc2c(Cl)cc(C(F)(C(F)(F)F)C(F)(F)F)cc2Cl)c1OC"
property_name = "pest or weed control at 200 ppm"
result = "≥ 80%"

[[record]]
molecule = "COc1c(NC(=O)c2ccc(F)cc2Cl)cccc1C(=O)Nc1c(C)cc(C(F)(C(F)(F)F)C(F)(F)C(F)(F)F)cc1C (stereo not drawn)"
property_name = "pest or weed control at 200 ppm"
result = "≥ 80%"


====

Reported pest or weed control at 200 ppm is given for each of the following compounds.
# System: Heliothis virescens
# PROTOCOL_SUMMARY: Heliothis virescens (Tobacco Budworm) egg test on artificial diet
# Assay type: in vivo
# CONDITION_PARAMETERS: 96 h, 200 ppm (concentration in well 18 ppm), eggs 0-24 h old on artificial diet, 4 days, egg mortality, larval mortality, growth regulation
PROPERTY_NAME: pest or weed control at 200 ppm

[[record]]
compound = "COc1c(NC(=O)c2ccc(C#N)cc2C)cccc1C(=O)Nc1c(Cl)cc(C(F)(C(F)(F)F)C(F)(F)C(F)(F)F)cc1Cl (stereo not drawn)"
experimental_system = "Heliothis virescens"
result = "≥ 80%"

[[record]]
compound = "COc1c(NC(=O)c2cc([N+](=O)[O-])ccc2Cl)cccc1C(=O)Nc1c(Cl)cc(C(F)(C(F)(F)F)C(F)(F)C(F)(F)F)cc1Br (stereo not drawn)"
experimental_system = "Heliothis virescens"
result = "≥ 80%"

[[record]]
compound = "COc1c(NC(=O)c2cccc(C#N)c2)cccc1C(=O)Nc1c(C)cc(C(F)(C(F)(F)F)C(F)(F)C(F)(F)F)cc1C (stereo not drawn)"
experimental_system = "Heliothis virescens"
result = "≥ 80%"

[[record]]
compound = "COc1c(NC(=O)c2cccc([N+](=O)[O-])c2C)cccc1C(=O)Nc1c(Cl)cc(C(F)(C(F)(F)F)C(F)(F)C(F)(F)F)cc1Br (stereo not drawn)"
experimental_system = "Heliothis virescens"
result = "≥ 80%"

[[record]]
compound = "COc1c(NC(=O)c2ccc([N+](=O)[O-])c([N+](=O)[O-])c2)cccc1C(=O)Nc1c(Cl)cc(C(F)(C(F)(F)F)C(F)(F)C(F)(F)F)cc1Br (stereo not drawn)"
experimental_system = "Heliothis virescens"
result = "≥ 80%"

[[record]]
compound = "COc1c(NC(=O)c2cc(Cl)cc(I)c2)cccc1C(=O)Nc1c(Cl)cc(C(F)(C(F)(F)F)C(F)(F)C(F)(F)F)cc1Br (stereo not drawn)"
experimental_system = "Heliothis virescens"
result = "≥ 80%"


====

Catalogue of melting point values
PROPERTY_NAME: melting point

[[record]]
compound = "COc1c(NC(=O)c2cnc(Cl)nc2Cl)cccc1C(=O)Nc1c(Cl)cc(C(F)(C(F)(F)F)C(F)(F)C(F)(F)F)cc1Br (stereo not shown) [B210]"
property_name = "melting point"
result = "114 to 115 °C"

[[record]]
compound = "COc1c(NC(=O)c2c(C)cc(Cl)cc2Cl)cccc1C(=O)Nc1c(Cl)cc(C(F)(C(F)(F)F)C(F)(F)C(F)(F)F)cc1Br (stereo not shown) [B211]"
property_name = "melting point"
result = "113 to 118 °C"

[[record]]
compound = "COc1c(NC(=O)c2cc([N+](=O)[O-])c(F)cc2C)cccc1C(=O)Nc1c(Cl)cc(C(F)(C(F)(F)F)C(F)(F)C(F)(F)F)cc1Br (stereo not shown) [B212]"
property_name = "melting point"
result = "83 to 84 °C"

[[record]]
compound = "COc1c(NC(=O)c2ccc(C#N)cn2)cccc1C(=O)Nc1c(Cl)cc(C(F)(C(F)(F)F)C(F)(F)C(F)(F)F)cc1Br (stereo not shown) [B208]"
property_name = "melting point"
result = "208 to 210 °C"

